Values compiled from ChEMBL document CHEMBL1150875.

Molecular target: Phospholipase A2 (Homo sapiens)
Test: Inhibition of human synovial secretory PLA2 at 10 uM
Design: scale not given: the % may be the effect or the level left
assayEndpoint: Activity (%)
One number for each entry, in %.

- CC(=O)OC1OC(=O)C=C1[C@H]1C[C@@H]2[C@H](CCC3[C@@]4(C)CCCC(C)(C)C4CC[C@]32C)[C@@H](OC(C)=O)O1 (stereo partly specified): 32.1
- CC(=O)O[C@H]1O[C@@H](C2=CC(=O)OC2O)C[C@@H]2[C@@H]1CCC1[C@@]3(C)CCCC(C)(C)C3CC[C@]12C (stereo partly specified): 59
- CC(=O)O[C@@H]1O[C@@H](C2=CC(=O)OC2O)C[C@@H]2[C@@H]1CC[C@H]1[C@@]2(C)CC[C@H]2C(C)(C)CCC[C@]12C (stereo partly specified) [PETROSASPONGIOLIDE M]: 68.6

Quick request: Activity for each listed item, please.
1. CC(=O)OC[C@@]1(C)CCC[C@]2(C)[C@H]3CC[C@@H]4[C@H](O)O[C@@H](C5=CC(=O)OC5O)C[C@H]4[C@]3(C)CC[C@@H]12 (stereo partly specified)
2. CC1(C)CCC[C@]2(C)[C@H]3CC[C@H](C(=O)O)[C@@H](/C=C/C4=CC(=O)OC4O)[C@]3(C)CC[C@@H]12 (stereo partly specified)

30.1
7.1

// Activity lookup, key: CC(=O)OC[C@@]1(C)CCC[C@]2(C)[C@H]3CC[C@@H]4[C@H](OC(C)=O)O[C@@H](C5=CC(=O)OC5O)C[C@H]4[C@]3(C)CC[C@@H]12 (stereo partly specified)
44

---

Species on record: Sus scrofa
Assay: Inhibition of pig pancreatic secretory PLA2 at 10 uM
Parameters: scale not given: the % may be the effect or the level left
For each of the compounds below, state its Activity.
Numbers only, in %.

- CC(=O)OC1OC(=O)C=C1[C@H]1C[C@@H]2[C@H](CCC3[C@@]4(C)CCCC(C)(C)C4CC[C@]32C)[C@@H](OC(C)=O)O1 (stereo partly specified): 0
- CC(=O)OC[C@@]1(C)CCC[C@]2(C)[C@H]3CC[C@@H]4[C@H](OC(C)=O)O[C@@H](C5=CC(=O)OC5O)C[C@H]4[C@]3(C)CC[C@@H]12 (stereo partly specified): 11.6
- CC(=O)O[C@H]1O[C@@H](C2=CC(=O)OC2O)C[C@@H]2[C@@H]1CCC1[C@@]3(C)CCCC(C)(C)C3CC[C@]12C (stereo partly specified): 0
- CC(=O)OC[C@@]1(C)CCC[C@]2(C)[C@H]3CC[C@@H]4[C@H](O)O[C@@H](C5=CC(=O)OC5O)C[C@H]4[C@]3(C)CC[C@@H]12 (stereo partly specified): 0
- CC(=O)O[C@@H]1O[C@@H](C2=CC(=O)OC2O)C[C@@H]2[C@@H]1CC[C@H]1[C@@]2(C)CC[C@H]2C(C)(C)CCC[C@]12C (stereo partly specified) [PETROSASPONGIOLIDE M]: 12.3

// Activity lookup, key: CC1(C)CCC[C@]2(C)[C@H]3CC[C@H](C(=O)O)[C@@H](/C=C/C4=CC(=O)OC4O)[C@]3(C)CC[C@@H]12 (stereo partly specified)
0.8

---

Target: Phospholipase A2 (Apis mellifera)
Assay: Inhibition of bee venom secretory PLA2 at 10 uM
Design: scale not given: the % may be the effect or the level left
For each of the molecules below, state its Activity.
One number for each entry, in %.

Known Activity results, listed for orientation:
• CC(=O)O[C@@H]1O[C@@H](C2=CC(=O)OC2O)C[C@@H]2[C@@H]1CC[C@H]1[C@@]2(C)CC[C@H]2C(C)(C)CCC[C@]12C (stereo partly specified) [PETROSASPONGIOLIDE M] = 71
• CC1(C)CCC[C@]2(C)[C@H]3CC[C@H](C(=O)O)[C@@H](/C=C/C4=CC(=O)OC4O)[C@]3(C)CC[C@@H]12 (stereo partly specified) = 18.8
• CC(=O)OC[C@@]1(C)CCC[C@]2(C)[C@H]3CC[C@@H]4[C@H](OC(C)=O)O[C@@H](C5=CC(=O)OC5O)C[C@H]4[C@]3(C)CC[C@@H]12 (stereo partly specified) = 43.9
• CC(=O)O[C@H]1O[C@@H](C2=CC(=O)OC2O)C[C@@H]2[C@@H]1CCC1[C@@]3(C)CCCC(C)(C)C3CC[C@]12C (stereo partly specified) = 34.8
• CC(=O)OC[C@@]1(C)CCC[C@]2(C)[C@H]3CC[C@@H]4[C@H](O)O[C@@H](C5=CC(=O)OC5O)C[C@H]4[C@]3(C)CC[C@@H]12 (stereo partly specified) = 12.5

Now examine the next entry.
// Activity lookup, key: CC(=O)OC1OC(=O)C=C1[C@H]1C[C@@H]2[C@H](CCC3[C@@]4(C)CCCC(C)(C)C4CC[C@]32C)[C@@H](OC(C)=O)O1 (stereo partly specified)
10.6
